Test system: CCRF-SB
Assay: Antiproliferative activity against human CCRF-SB cells after 96 hrs by MTT assay
Assay type: functional, cell-based
measuredProperty: IC50 (nM)

(A) CCc1ccc(N2C(=O)NC3(CSC4=C3C(=O)c3ncccc3C4=O)C2=O)cc1 (racemic)
(B) O=C1NN(c2ccccc2)C(=O)C2(CSC3=C2C(=O)c2ncccc2C3=O)N1 (racemic)
(C) CC(C)(C)c1ccc(N2C(=O)NC3(CSC4=C3C(=O)c3ncccc3C4=O)C2=O)cc1 (racemic)
Ask: Which order do the items above take when sorted by IC50 from high to low? // format: requested-order list of labels
Reply: C, B, A
(C: 200 nM, B: 39 nM, A: 10 nM)

(A) O=C1NNC(=O)C2(CSC3=C2C(=O)c2ncccc2C3=O)N1 (racemic)
(B) CCCCCc1ccc(N2C(=O)NC3(CSC4=C3C(=O)c3ncccc3C4=O)C2=O)cc1 (racemic)
Ask: Min IC50? A | B Answer by stating the label of the chosen item.
Reply: A

====

System: HT-29
Experiment: Antiproliferative activity against human HT-29 cells after 96 hrs by MTT assay
Type: functional, cell-based
Settings: Homo sapiens, HT-29, 96 h
measuredProperty: IC50 (nM)

(a) O=C1C2=C(C(=O)c3ncccc31)C1(CS2)NC(=O)N(c2ccccc2)C1=O (racemic)
(b) CN(C)c1ccc(N2C(=O)NC3(CSC4=C3C(=O)c3ncccc3C4=O)C2=O)cc1 (racemic)
Ask: Consider entries a and b . Which has the numerically lower IC50? Response format: the label of the selected entry.
Reply: a
(a: 2 nM, b: 20 nM)

====

Test system: XF498
Test: Antiproliferative activity against human XF498 cells after 96 hrs by MTT assay
Type: functional, cell-based
Conditions: XF498, 96 h
measuredProperty: pIC50
Please note pIC50 is a logarithmic value: minus log10 of concentration in mol/L. Answer with that number alone.

Solved entries (count: 8):
O=C1C2=C(C(=O)c3ncccc31)C1(CS2)NC(=O)N(c2ccccc2)C1=O (racemic) ... 5.82
O=C1C2=C(C(=O)c3ncccc31)C1(CS2)NC(=O)N(c2ccc(Cl)cc2)C1=O (racemic) ... 6.23
O=C1C2=C(C(=O)c3ncccc31)C1(CS2)NC(=O)N(c2ccc([N+](=O)[O-])cc2)C1=O (racemic) ... 5.99
O=C1NN(c2ccc([N+](=O)[O-])cc2)C(=O)C2(CSC3=C2C(=O)c2ncccc2C3=O)N1 (racemic) ... 5.32
O=C1NNC(=O)C2(CSC3=C2C(=O)c2ncccc2C3=O)N1 (racemic) ... 5.30
CCCCc1ccc(N2C(=O)NC3(CSC4=C3C(=O)c3ncccc3C4=O)C2=O)cc1 (racemic) ... 6.02
CC(C)(C)c1ccc(N2C(=O)NC3(CSC4=C3C(=O)c3ncccc3C4=O)C2=O)cc1 (racemic) ... 6.07
CCN(CC)c1ccc(N2C(=O)NC3(CSC4=C3C(=O)c3ncccc3C4=O)C2=O)cc1 (racemic) ... 6.14

Ask: Can you look up the measured pIC50 of Cc1ccc(N2NC(=O)NC3(CSC4=C3C(=O)c3ncccc3C4=O)C2=O)cc1 (racemic) for me?
Reply: 5.42

Ask: Report pIC50 for COc1ccc(N2NC(=O)NC3(CSC4=C3C(=O)c3ncccc3C4=O)C2=O)cc1 (racemic) please.
Reply: 5.42

Ask: Bench note: what pIC50 did CCc1ccc(N2C(=O)NC3(CSC4=C3C(=O)c3ncccc3C4=O)C2=O)cc1 (racemic) show?
Reply: 5.92

Ask: Need pIC50, item O=C1C2=C(C(=O)c3ncccc31)C1(CS2)NC(=O)N(c2ccc(N3CCOCC3)cc2)C1=O (racemic)
Reply: 5.77

Ask: Look at this molecule and give its reported pIC50. CN(C)c1ccc(N2C(=O)NC3(CSC4=C3C(=O)c3ncccc3C4=O)C2=O)cc1 (racemic)
Reply: 6.10
